B1: library; a variant is named by its letters at N, in order (parent)
chain: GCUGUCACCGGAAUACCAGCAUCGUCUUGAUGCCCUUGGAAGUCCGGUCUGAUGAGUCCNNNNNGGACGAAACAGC

Variants of: B1
procedure_summary: normalized RNA/DNA level without ligand (relative to sTRSVctl = 100) (log10 (% of sTRSVctl)); higher = less ribozyme self-cleavage, higher mRNA level
condition_context: HEK293T, reporter: mCherry (pCS4076), ligand present: no
property_label: normalized RNA/DNA level without ligand (log10)
Just the number, please, no unit after it.

Record excerpt, results attached:
mutation_name: ACCUC
readout_value: 1.98
--
mutation_name: CCCUA
readout_value: 1.87
--
mutation_name: GCACU
readout_value: 1.86
--
mutation_name: GACAU
readout_value: 1.86
--
mutation_name: GUAUU
readout_value: 1.88

QUERY: GET /values?readout=normalized RNA/DNA level without ligand (log10)&item= `AUCAA`
RESULT: 1.68

QUERY: GET /values?readout=normalized RNA/DNA level without ligand (log10)&item= `GAAGU`
RESULT: 1.68
